The values you see were collected from patent US20260207757A1.

molecular target: T1, type 1 IGF receptor (IGF-1R) (human, UniProt P08069 31-1367); experiment: competition binding to IGF receptors against radioactive wild type IGF
T1 construct: whole, on cells; also called IGF-1 receptor; CD221
T1 sequence (P08069 31-1367): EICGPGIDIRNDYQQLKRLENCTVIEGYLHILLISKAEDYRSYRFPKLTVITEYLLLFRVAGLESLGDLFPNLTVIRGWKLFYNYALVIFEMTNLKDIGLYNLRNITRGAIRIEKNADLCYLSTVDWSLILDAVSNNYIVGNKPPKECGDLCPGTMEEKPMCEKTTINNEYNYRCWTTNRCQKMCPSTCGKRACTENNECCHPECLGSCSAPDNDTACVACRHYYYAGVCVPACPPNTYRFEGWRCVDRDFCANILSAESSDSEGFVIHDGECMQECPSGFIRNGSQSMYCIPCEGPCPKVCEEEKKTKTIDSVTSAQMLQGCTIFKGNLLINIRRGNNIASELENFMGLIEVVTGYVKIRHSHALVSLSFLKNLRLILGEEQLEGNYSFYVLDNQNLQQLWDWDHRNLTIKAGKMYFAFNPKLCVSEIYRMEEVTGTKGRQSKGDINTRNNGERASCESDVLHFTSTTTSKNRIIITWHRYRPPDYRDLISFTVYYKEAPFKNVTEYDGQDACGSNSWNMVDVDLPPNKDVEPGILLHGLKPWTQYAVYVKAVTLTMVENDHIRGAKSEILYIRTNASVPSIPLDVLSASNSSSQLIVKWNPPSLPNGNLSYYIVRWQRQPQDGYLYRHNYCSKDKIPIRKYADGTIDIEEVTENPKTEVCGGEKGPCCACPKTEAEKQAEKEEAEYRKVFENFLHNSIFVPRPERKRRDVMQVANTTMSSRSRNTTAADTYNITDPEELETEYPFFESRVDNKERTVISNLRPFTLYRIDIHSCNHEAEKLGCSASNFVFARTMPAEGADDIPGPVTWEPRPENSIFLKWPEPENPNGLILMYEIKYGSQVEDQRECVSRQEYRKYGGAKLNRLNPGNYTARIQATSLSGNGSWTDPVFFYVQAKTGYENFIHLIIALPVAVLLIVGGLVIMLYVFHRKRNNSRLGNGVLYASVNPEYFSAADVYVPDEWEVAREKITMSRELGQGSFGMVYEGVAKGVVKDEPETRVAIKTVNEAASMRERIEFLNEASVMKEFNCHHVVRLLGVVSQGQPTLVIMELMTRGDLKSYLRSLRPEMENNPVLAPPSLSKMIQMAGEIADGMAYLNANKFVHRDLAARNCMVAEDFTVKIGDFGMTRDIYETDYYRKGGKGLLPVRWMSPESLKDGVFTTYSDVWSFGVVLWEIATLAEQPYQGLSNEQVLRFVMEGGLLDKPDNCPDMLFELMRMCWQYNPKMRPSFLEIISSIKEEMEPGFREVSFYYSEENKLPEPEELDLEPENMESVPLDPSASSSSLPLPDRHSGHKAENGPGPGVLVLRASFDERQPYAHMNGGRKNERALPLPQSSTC
experimental endpoint: Kd

403IGF (ligand, T0001 describes it as His6-IGF; also called His6-IGF) MTSGHHHHHHSAGVNGFVNQHLCGSHLVEALYLVCGDRGFYFNKPTGYGSSSRRAPQTGIVDECCFRSCDLRRLEMYCAPLKPAKSA
~2 nM
764IGF (ligand, also called His6-K5-IGF132) MVKGKHHHHHHNGKGKSKFVNQHLCGSHLVEALYLVCGDRGFYFNKPTGYGSSSRRAPQTGIVDECCFRSCDLRRLEMYCAPLKPAKSA
~100 nM

Kd reported for this binder 785IGF (ligand, also called mutTrx-IGF132) MVKQIESKTAFQEALDAAGDKLVVVDFSATWCGHCKMIKPFFHSLSEKYSNVIFLEVDVDDSQDVASESEVKSMPTFQFFKKGQKVGEFSGANKEKLEATINELVGSKSGHHHHHHSAKGFVNQHLCGSHLVEALYLVCGDRGFYFNKPTGYGSSSRRAPQTGIVDECCFRSCDLRRLEMYCAPLKPAKSA : ~40 nM
